- assayDetails: yeast display, Sf9 membrane polyspecificity reagent, FACS + sequencing; frameworks hold sequencing errors
readoutName: polyreactivity (PSR sort gate)

Solved cases below.
Input line: Please look up its polyreactivity (PSR sort gate): "QVQLVESGGGLVQAGGSLRLSCAASGITFGRNTMGWSRQAPGKEREMVASITRGGNTNYADSVKGRFTISRDNAKNTVYLQLNSLKPEDTAVYYCAARSTYRVSHVDYWGQGTQVTVSS"
Output line: low polyreactivity

Input line: Repeat for the following sequence: "QVQLVDSGGGLVQAGGSLRLSCADSGRTFYTNAMGWYRQAPGKERELVAAIDISGSTYYADSVKGRFTISRDNAKNTVYLQMNSLKPEDTAVYYCNVDTVCLGGEKGGYYWGQGSQVTVSS"
Output line: low polyreactivity

Input line: Repeat for the following sequence: "QVQHVESRGGLVQAGGSLRLSCAASGRTFFNNVMGWYRQAPGKERELVAAISKSGTRTYYADSVKGRFTISRDNAKNTVYLQMNSLKPEDTAVYYCATGQYLRTSRYYYWGQGTQVTVSS"
Output line: high polyreactivity

Input line: Repeat for the following sequence: "QVQLLESGGGLVQAGGSHRLSCAASGYIFHYNAMGWYIQAPGKERELVAAISYSGGSTYYADSVKGRFTISRDNAKNTVYLQMNSLKPEDTAVYYCAASRRPFPGYYWGQGTQVTVSS"
Output line: high polyreactivity

Continuing:
Input line: Please look up its polyreactivity (PSR sort gate): "QVQLVESGGGLVQAGGSLRLSCAASGSTFSSNAMGWYRKAPGKERELVAAISVNGGSTNYADSVKGRFTISRDNAKNTVYLQMNSLKPEDTAVYYCAAEPAKVAFYRGDYWGQGTQVTVSS"
Output line: low polyreactivity

---

- assayDetails: yeast display, Sf9 membrane polyspecificity reagent, FACS + sequencing; frameworks hold sequencing errors
readoutName: polyreactivity (PSR sort gate)

Input line: Please look up its polyreactivity (PSR sort gate): "QVQLVESGGGLVQAGGILRLSCAASGFTLADNTMVWYRQSPGKERELVADITSGASTYYADSVKGRFTISRDNAKNTVYLQMNSLKPEDTAVYYCAALYYWRSGYDYWGQGTQVTVSS"
Output line: low polyreactivity

Input line: Repeat for the following sequence: "QVQLVESGGGLVQAGGSLRLSCAASGRTFVYYAMGWYRQAPGKERELVAAISRSGSTYYADSVKGRFTISRDNAKNTVYLQMNSLKPEDTAVYYCAARSVYTGRPYYYWGQGTQVTVSS"
Output line: high polyreactivity

Input line: Repeat for the following sequence: "QVQLVESGGGLVQAGGSLRLSCAASGRIFFPYAMGWYRQAPGKEREFVAAITTGCGSTYYADSVKGRFTISRDNAKNTVYLQMNSLKPEDTAVYYCAKRTYSRKFRGAYNYWGQGTQVTVSS"
Output line: high polyreactivity

Input line: Repeat for the following sequence: "QVQLVESGGGLVQAGGSLRLSCAASGFTFDAYDMGWYRQAPGKERELVAAISWRGIDTTYADSVKGRFTISRDNAKNTVYLQMNSLKPEDTAVYYCAEFVSDATVGPSKGLDYWGQGTQVTVSS"
Output line: low polyreactivity

Input line: Repeat for the following sequence: "QVQLVESGGGLVQAGGSLRLSCAASGFTFIYYAMGWYRQAPGKERELVAAISASGGSTYYADSVKGRFTISRDNSKNTVYLQMNSLKPEDTAVYYCDAYRVWYRGYPMGYWGQGTQVTVSS"
Output line: high polyreactivity

Continuing:
Input line: Please look up its polyreactivity (PSR sort gate): "QVQLVESGGGLVQAGGSLRLSCAASGRIFLWYAMGWSRQAPGKERELVAGISSGASTYYADSVKGRFTISRDNAKNTVYLQMNSLKPEDTAVYYCAAPYDRLTGWSRYDYWGQGTQVTVSS"
Output line: high polyreactivity

Input line: Repeat for the following sequence: "QVQLVESGGGLVQAGGSLRLSCAASGFIFTTYAMGWYRQAPGKERELVAAISSSGTTYYADSVKGRFTISRDNAKNTVYLQMNSLKPEDTAVYYCAARRQFRSYQQRLYYWGQGTQVTVSS"
Output line: low polyreactivity

Input line: Repeat for the following sequence: "QVQLVESGGGLVQAGGSLRLSCAASGSTFYDYAMGWYRQAPGKERELVAAISQSGGSTYYADSVKGRFTISRDNAKNTVYLQMNSLKPEDTAVYYCAADSGYSLYDYWGQCTQVTVSS"
Output line: low polyreactivity

Input line: Repeat for the following sequence: "QVQLVESGGGLVQAGGSLRLSCAASGRIFKRYAMGWYRQAPGKERELVASITWSGGSTYYADSVKGRFTISRDNAKNTVYLQMNSLKPEDTAVYYCAARRTATTSRAYYYWGQGTQVTVSS"
Output line: high polyreactivity

Input line: Repeat for the following sequence: "QVQLVESGGGLVQAGGSLRLSCAASGFIFVEYAMGWYRQAPGKERELVAAISGRDGSTYYADSVKGRFTISRDNAKNTVYLQMNSLKPEDTAVYYCAADRIHSVTRYDYDYWGQGTQVTVSS"
Output line: low polyreactivity

Input line: Repeat for the following sequence: "QVQLVESGGGLVQAGGSLRLSCAASGLIFYAYAMGWYRPAPGKERELVAAITSGSGTNYADSVKGRFTISRDNAKNTVYLQMNSLKPEDTAVYYCNAETYGLVPYYIYHYDFDYWGQVTQVTVSS"
Output line: high polyreactivity

Input line: Repeat for the following sequence: "QVQLVESGGGLVQAGGSLRLSCAASGRIFHKYAMGWYRQAPGKERELVATIRSDDITYYADSVKGRFTISRDNAKNTVYLQMNSLKPEDTAVYYCAAYFWRYSSLYYYWGQGTQVTVSS"
Output line: high polyreactivity

Input line: Repeat for the following sequence: "QVQLVESGGGLVQAGGSLRLSCAASGRIFGVNAMGWYRQAPGKERELVAAISSGDSTYYADSVKGRFTISRDNAKNTVYLQMTCLKPEDTAVYYCAADVLGTTTTVGGFNYWGQGTQVTVSS"
Output line: low polyreactivity

Input line: Repeat for the following sequence: "QVQLVESGGGLVQAGGSLRLSCAASGLIFHRNAMGWYRQAPGKERELVAAITKTGGGTYYADSVKGRFTISLDNAKNTVYLQMNSLKPEDTAVYYCAADTQRTFYYWGQGTQVTVSS"
Output line: low polyreactivity

Input line: Repeat for the following sequence: "QVQLVESGAGLVQAGGSLRLCCAASGSTFTKNAMGLYRQAPGKERELVAAISWRDGSTYYADSVKGRFTISRDNAKNTVYLQMNSLKPEDTAVYYCNAVRRSFGKYPGLLDYDYWGQGTQVTVSS"
Output line: high polyreactivity

Input line: Repeat for the following sequence: "QVQLVESGGGLVQAGGSLRLSCAASGSIVGTYAMGWYRQAPGKERELVAAITWRGGNTYYADSVKGRFTISRDNAKNTVYLQMNSLKPEDTAVYYCAARGYKSSRRYYYWGQGTQVTVSS"
Output line: high polyreactivity

Input line: Repeat for the following sequence: "QVQLEESGGGLVQAGGSHRLSCAASGSTIYAYTMGWYRQAPGKERELVARISGRGGSTYYADSVKGRFTISRDNAKNTVYLQMNSLKQEDTAVYYCAARRKFDYWGQGTQVTVSS"
Output line: high polyreactivity

Input line: Repeat for the following sequence: "QVQLVESGGGLVQAGGSLRLSCAASGYTFYRYTMGWYRQAPGKERELVAAINSGGSTNYADSLKGRFTISRDNAKYTVYLQMNSLKPEDTAVYYCARRYQTWPRWYDYWGQGTQVTVSS"
Output line: high polyreactivity

Input line: Repeat for the following sequence: "QDQLVESGGGLVQAGGSLSLSCAASGSIFFRNVMGWYRQAPGKERELVAAISGSGGRTYNADSVKGRFTISRDNAKNTVYLQMNSLKPEDTAVYYCYADYWSRRDDHDYWGQGTQVSVSS"
Output line: high polyreactivity

Input line: Repeat for the following sequence: "QVQLVESGGGLVQAGGSLRLSCAASGSIFVGYAMGWYRQAPGKERELVAAISKRGGGTYYADSVKGRFTISRDNAKNTVYLQMNSLKPEDTAVYYCNAVTVHLDVASGYYYWGQGTQVTVSS"
Output line: high polyreactivity

Input line: Repeat for the following sequence: "QVQLVESGGGLVQAGGSLRLSCAASGRTFFSYVMGWYRPAPGKEREFVAAISRSGGNTYYADSVMGRFTISRDNAKNTVYLQMNSLKPEETAVYYCNKPQRILYDYWGHGTQVTVSS"
Output line: high polyreactivity
